Values compiled from ChEMBL document CHEMBL3580620.

Assay: Antioxidant activity assessed as DPPH radical scavenging activity after 10 mins by spectrophotomteric analysis
Format: physicochemical
reported.metric: IC50 (µg/mL)
Kindly provide the numeric value in µg/mL only, without the unit symbol.

Solved cases below.
smiles.code | IC50 / µg/mL
O=C1O[C@H]([C@@H](O)CO)C(O)=C1O | 7.63
COc1cc(/C=C/C(=O)OC[C@H]2O[C@H](O[C@]3(CO)O[C@H](CO)[C@@H](O)[C@@H]3OC(=O)/C=C/c3cc(OC)c(OC)c(OC)c3)[C@H](O)[C@@H](O)[C@@H]2O)cc(OC)c1O | 54.98

Exam item: Requested field: IC50. Item: `COc1cc(/C=C/C(=O)OC[C@H]2O[C@H](O[C@]3(CO)O[C@H](CO)[C@@H](OC(=O)/C=C/c4cc(OC)c(O)c(OC)c4)[C@@H]3OC(=O)/C=C/c3cc(OC)c(O)c(OC)c3)[C@H](O)[C@@H](O)[C@@H]2O)cc(OC)c1O`
Marked response: 27.1
